Where do the numbers come from? From the supplement of paper PMC9170038.

The entries below come with measured apparent KD of MS2 coat protein values attached.
- Test system: MS2 coat protein
- Method Description: apparent KD of MS2 coat protein, switch OFF state (with FMN for OFF switches, without FMN for ON switches); designed switch direction (-1 OFF switch, 1 ON switch): -1; higher = weaker reporter binding
- Run Parameters: FMN input: 0 or 200 uM; Eterna round: R93 (includes R88 designs)
Note: a bare number is incomplete; add the unit.

// solved cases for apparent KD of MS2 coat protein follow
GGUUGACGAGGAUAUACAUGAGGAUCACCCAUGUGAGAGAAAAAAGUGAGAAAGAAAAGUAGAAGGCGUUGACG [salish99-ex3-59]: 91.8 nM
AGCAAGAGAGGAUAUACAUAGGAAAAAAAAGUUAGAUCCCUACAUGAGGAUCACCCAUGUAGAAGGCUCUGGCA [Ex2 Design 153: Sub-opt 17]: 37.1 nM
AAAAUACAUGAGGAUCACCCAUGUGAGGAUAUGAGAAAGGGAAUAAAAUAACCCAAACUCAGAAGGCACAAAAA [Ex 1 May 26]: 45.9 nM

Tell me its apparent KD of MS2 coat protein given AGUUGGCGAGGAUAUACAUGAGGAUCACCCAUGUAAAAUAAAUAAAAAAUAAAGGGAAGUAGAAGGCGCUGACA [73%, Moding Norbert Elias, 15] as the entry.
77 nM

----------
- Tested on: MS2 coat protein
- Method Description: apparent KD of MS2 coat protein; designed switch direction (-1 OFF switch, 1 ON switch): -1; higher = weaker reporter binding
- Run Parameters: Eterna round: R95; input ligand: FMN 200 uM
Attribute Measured: apparent KD of MS2 coat protein

Worked cases, answers included:
GAGAAGGUAGGAUAUACGAAUAAAUAGGGUAGGAAGAAGACACAUGAGGAUCACCCAUGUAGAAGGACCAAGAG [Mat - Exclusion 2 - Mod of my Tesla design - D36] (puzzle: Exclusion 2): 29.3 nM
GGCAAUAACGAGGAUAUCGUAUGGGAAACCAUACGAGAAGGUGUAACAUGAGGAUCACCCAUGUUCCUCAAGCC [Mat - Exclusion 6 - Eli Mod - D66] (puzzle: Exclusion 6): 35.3 nM
UGGGUUCUCCAUGGAAGUAACAUGAGGAUCACCCAUGUAGGGCAAGUUUUUUGCUCGUCAUAGGCCGUGGGUUUGGA [JR_SV3TOV1_Sub019] (puzzle: Sensor v3, turn-off variant 1): 252 nM

Provide only the value of recorded apparent KD of MS2 coat protein for AAAUAAUAGAUAAAAUAAAACAUGAGGAUCACCCAUGUAGGCUGAUGAGGGUGAAACAAGCUUUUUGCUCGUCUUAU (puzzle: Sensor v3, turn-off variant 1)
154 nM

Dear colleague, please send me the reported apparent KD of MS2 coat protein for AGUACUAACACGAAAGUGUUAGUACAAUAAGCUUGUGGAACAUGAGGAUCACCCAUGUCCUCAUAAGCUCGUCUUAG [Mat - Sensor v3 - Turn-off var 2 - D26] (puzzle: Sensor v3, turn-off variant 2) when you can.
15.9 nM

----------
- Test system: MS2 coat protein
- Method Description: apparent KD of MS2 coat protein; designed switch direction (-1 OFF switch, 1 ON switch): -1; higher = weaker reporter binding
- Run Parameters: input ligand: none
Assign True to entries whose apparent KD of MS2 coat protein meets or exceeds 20 nM; assign False to the rest.

Completed entries (count: 3):
UCCGUUUGAGGAUAUAUGUAGACAAACAUGAGGAUCACCCAUGUCGGGAUCGAAAUGUCCGUAGAAGGCAAACUGG [Eternabot (L2) Solution 13] (Eterna round: R97, puzzle: Exclusion 5): True
CAGUCCGUUUGAGGAUAUCUCUGGAUCGCCAUGAGAGAAGGCAAACAUGAGGAUCACCCAUGUGGUACCGACUCAACGUCGACA [Eternabot solution 10] (Eterna round: R96, puzzle: Exclusion NG 1): False
GACCAGGUAGGAUAUGCAGGGUCGGACUUGAGGAUCACCCAAGUGGCCAAAGUGCGUCCCGCAGAAGGGCCGAAAA [Isisusge] (Eterna round: R97, puzzle: Exclusion 5): True

State whether the measured apparent KD of MS2 coat protein reaches 20 nM, counting equality as reaching it, for CUUUUGUGAGGAUAUUCAUAGUAGGGUCAUGGCAUUAUUAUGAAGAAGGCACAUGAGGAUCACCCAUGUACCUU [EX4 #49] (Eterna round: R97, puzzle: Exclusion 4)
True

Could you tell me if the measured apparent KD of MS2 coat protein of UUUUCGUCAGGAUAUUCUACUUAUUACAUGAGGAUCACCCAUGUGUAUGUACAAGGGUGUGAAGAAGGGACUUUUU [LRO-Excl5-10-mod A17d by Omei] (Eterna round: R97, puzzle: Exclusion 5) reaches 20 nM or more?
True
